Target: Cell division control protein 42 homolog (Homo sapiens) (UniProt P60953)
Sequence (P60953 whole entry, looked up): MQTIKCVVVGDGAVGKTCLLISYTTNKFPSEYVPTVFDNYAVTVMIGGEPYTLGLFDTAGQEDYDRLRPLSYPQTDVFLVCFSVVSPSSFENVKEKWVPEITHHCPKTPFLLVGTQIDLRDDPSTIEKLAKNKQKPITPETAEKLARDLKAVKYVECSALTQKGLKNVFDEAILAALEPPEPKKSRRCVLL
Experiment: wildtype Cdc42 fluorescent GTP binding changes, either direction – biochemical, multiplex bead flow cytometry, Bodipy-GTP, primary screen (AID 761);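 note: median bead fluorescence of bound Bodipy-FL-GTP at 100 nM; 0% = excess unlabeled GTP control and 100% = no compound control; below 100% means less GTP binding so inhibitor and above means activator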
Conditions: GST-Cdc42 beads, at 10 µM, actives lie on both sides
About 400 (0.21%) of roughly 190,000 compounds were called active. About 2% were inconclusive and are not listed. The full list was thinned out, with actives kept by preference.
Provide the reported percent activity (GTP binding) of each item.

Prompt line: # return recorded percent activity (GTP binding) for input CCN1CC(CN(C)Cc2nc(-c3ccc(Cl)cc3)no2)CC1=O (stereo not drawn)
Response line: 101% (inactive)

Prompt line: Identify percent activity (GTP binding) associated with the compound O=C(N/N=C/c1ccco1)c1ccc(C(=O)N/N=C/c2ccco2)o1
Response line: 84% (inactive)

Prompt line: Give the reported percent activity (GTP binding) for this compound. Cc1cc(NC(=O)CSc2nccn2-c2ccc([N+](=O)[O-])cc2)no1
Response line: 96% (inactive)

Prompt line: Return percent activity (GTP binding) (reported value) for this compound: C=CCN(CC=C)S(=O)(=O)c1ccc(C(=O)Nc2sc3c(c2C(N)=O)CCCCC3)cc1
Response line: 104% (inactive)

Prompt line: Entry O=C(NCC1CCN(Cc2ccccc2Cl)CC1)Nc1cccc(Cl)c1 needs its percent activity (GTP binding) filled in; supply it.
Response line: 106% (inactive)

Prompt line: Item O=C(Cc1ccc(F)cc1)N1CCN=C1SCc1cccc([N+](=O)[O-])c1 : provide percent activity (GTP binding)
Response line: 96% (inactive)

Prompt line: Output measured percent activity (GTP binding) for this item: Cc1ccc(N2C(=O)C3CC3C2=O)cc1 (stereo not drawn)
Response line: 98% (inactive)

Prompt line: Write down percent activity (GTP binding) measured for item O=C(O)Cc1sc(-c2ccccc2)nc1-c1cccs1
Response line: 92% (inactive)

====

So I've got a bunch of compounds here, and I need their percent activity (GTP binding) values.
Target: Cell division control protein 42 homolog (Homo sapiens) (UniProt P60953)
Assay: wildtype Cdc42 fluorescent GTP binding changes, either direction – biochemical, multiplex bead flow cytometry, Bodipy-GTP, primary screen (AID 761);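 note: median bead fluorescence of bound Bodipy-FL-GTP at 100 nM; 0% = excess unlabeled GTP control and 100% = no compound control; below 100% means less GTP binding so inhibitor and above means activator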
Conditions: GST-Cdc42 beads, at 10 µM, actives lie on both sides
In all, about 190,000 compounds went through this assay and about 400 (0.21%) were called active. Not shown: some 2% with an inconclusive outcome. The sample holds actives, similar compounds and a random draw of the others, so the mix is not that of the screen.

Prompt line: Name the recorded percent activity (GTP binding) of O=C(c1ccc(OC2CCN(Cc3ccccn3)CC2)cc1)N1CCCCCC1 , assay system Cell division control protein 42 homolog (Homo sapiens) (UniProt P60953).
Response line: 96% (inactive)

Prompt line: Determine reported percent activity (GTP binding) for COCCN(CCOC)S(=O)(=O)c1ccc(C(=O)Nc2nc3c(s2)CCc2ccccc2-3)cc1 ; test system: Cell division control protein 42 homolog (Homo sapiens) (UniProt P60953).
Response line: 107% (inactive)

Prompt line: // fetch percent activity (GTP binding) for Cc1nc(N2CCC(C)CC2)c2c(C)c(C(=O)Nc3cc(F)ccc3C)sc2n1 ; system: Cell division control protein 42 homolog (Homo sapiens) (UniProt P60953)
Response line: 92% (inactive)

Prompt line: Fill in percent activity (GTP binding) for COc1cc(/C=C/C(=O)OCC(=O)N2CCOCC2)ccc1OCC#N tested with Cell division control protein 42 homolog (Homo sapiens) (UniProt P60953).
Response line: 97% (inactive)

Prompt line: Consider the compound O=C(OCC1O[C@@H](OC(=O)c2cc(O)c(O)c(O)c2)[C@@H](OC(=O)c2cc(O)c(O)c(O)c2)[C@@H](OC(=O)c2cc(O)c(O)c(O)c2)[C@@H]1OC(=O)c1cc(O)c(O)c(O)c1)c1cc(O)c(O)c(O)c1 (some centres undefined) tested on Cell division control protein 42 homolog (Homo sapiens) (UniProt P60953); state its percent activity (GTP binding).
Response line: 79% (active)

Prompt line: Enter recorded percent activity (GTP binding) with Cell division control protein 42 homolog (Homo sapiens) (UniProt P60953) for CCC(C)(C)NC(=O)C(c1cccc(OC)c1OC)N(CC(C)C)C(=O)CCC(=O)Nc1cc(C)on1 (centres undefined) here.
Response line: 99% (inactive)

Prompt line: Return reported percent activity (GTP binding) for target or system Cell division control protein 42 homolog (Homo sapiens) (UniProt P60953), item c1ccc(-n2nnnc2-c2cccnc2)cc1 .
Response line: 95% (inactive)

Prompt line: Tell me its percent activity (GTP binding) on Cell division control protein 42 homolog (Homo sapiens) (UniProt P60953): CC(=O)Nc1ccc(S(=O)(=O)Nc2ccc(-c3ccc4nnc(C)n4n3)cc2)cc1
Response line: 89% (inactive)

Prompt line: Specify percent activity (GTP binding) for C=CCN(CC=C)S(=O)(=O)c1ccc(C(=O)Nc2nc3c(s2)CCc2ccccc2-3)cc1 , system Cell division control protein 42 homolog (Homo sapiens) (UniProt P60953).
Response line: 138% [activator] (active)

====

Target: Cell division control protein 42 homolog (Homo sapiens)
Test: wildtype Cdc42 fluorescent GTP binding changes, either direction – biochemical, multiplex bead flow cytometry, Bodipy-GTP, primary screen (AID 761);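 note: median bead fluorescence of bound Bodipy-FL-GTP at 100 nM; 0% = excess unlabeled GTP control and 100% = no compound control; below 100% means less GTP binding so inhibitor and above means activator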
Settings: GST-Cdc42 beads, at 10 µM, actives lie on both sides
Out of some 190,000 compounds screened, about 400 (0.21%) were called active. Inconclusive results (about 2%) are left out.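 The calls were made as follows: active = percent activity GTP binding at least 20 points away from the 100% baseline, either down as inhibitor or up as activator; inconclusive = compound flagged as likely green fluorescent from well-wide comparison; inactive = the rest.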 Many of the other results were omitted from the sample, so actives are more common in it than they were.
# output must be one of 1 (active), -1 (inactive)

Prompt line: Call for entry O=C(c1ccccc1Cl)N(Cc1ccccc1F)N1C(=O)CCCC1=O :
Response line: -1

Prompt line: Field: outcome | Entry: N/C(=N\OC(=O)c1ccc([N+](=O)[O-])cc1)c1ccccn1
Response line: -1

Prompt line: What is the recorded call for this molecule in the test? OC1CCCN(c2ncnc3c2nnn3Cc2c(F)cccc2Cl)C1 (stereo not given)
Response line: -1

Prompt line: Hello, I am checking results. What call was entered for CC(=O)c1cc(C#N)c(N2CC(C)OC(C)C2)nc1C (stereo not given) ?
Response line: -1

Prompt line: Answer briefly: the call reported for O=C(COC(=O)C1CCCCC1)Nc1ccc([N+](=O)[O-])cc1 in this assay.
Response line: -1

Prompt line: Outcome? O=C1Nc2cc(Cl)c(Cl)cc2N(O)N1c1ccccc1Cl
Response line: -1

Prompt line: Just curious, what result did CCCSc1nc2[nH]ncc2c(=O)[nH]1 get here?
Response line: -1

Prompt line: Field: outcome | Entry: O=C(NCC(O)c1ccc([N+](=O)[O-])cc1)C1CCCCC1 (stereo not given)
Response line: -1

Prompt line: # fetch the recorded call for Cc1cccc2cc(CN(Cc3cccs3)C(c3nnnn3C3CCCC3)C(C)C)c(=O)[nH]c12 (stereo not given) here
Response line: 1

Prompt line: Assay result, entry CC(=O)N1CCc2cc(Br)cc(S(=O)(=O)CCC(=O)Nc3c(C)n(C)n(-c4ccccc4)c3=O)c21 — outcome?
Response line: -1

Prompt line: Test call, this molecule: Cc1ccccc1OCCOc1ccc([N+](=O)[O-])cc1/C=N/n1cnnc1
Response line: -1

Prompt line: Can you look up the reported call for O=C(COc1cc(Cl)c(Cl)cc1Cl)NCCc1ccccn1 for me?
Response line: -1

Prompt line: Answer briefly: the call reported for Cc1cccc(C(=O)OC(C)CN2CCN(C)CC2)c1 (stereo not given) in this assay.
Response line: -1

Prompt line: Give the logged outcome of this assay for the following molecule: Cc1ccccc1CC1(CO)CCCN(C(=O)c2cc(-c3ccccc3)no2)C1 (stereo not given)
Response line: -1

Prompt line: Hello, I am checking results. What call was entered for COc1ccc(NC(=O)c2c(SC)nsc2SC)cc1 ?
Response line: -1

Prompt line: Can you look up the reported call for COc1ccc(C(C)=O)cc1CSc1nc2nc(C)cc(C)n2n1 for me?
Response line: -1

Prompt line: What call does the record list for O=C(Nc1ccc2c(c1)CCC2)c1ccc(Br)s1 ?
Response line: -1

Prompt line: Could you kindly confirm the outcome this assay logged for CN(c1ccccc1)S(=O)(=O)c1ccc(Cl)c(C(=O)OCC(=O)N2CCOCC2)c1 ?
Response line: -1

Prompt line: Per the assay record, what outcome was assigned to O=C(Nc1ccc(Cl)cc1)C1c2cccc[n+]2CC(=O)N1Cc1ccc2c(c1)OCO2 (stereo not given) ?
Response line: -1

Prompt line: So what was the verdict on O=C(/C=C/c1ccccc1)Oc1coc(CSc2ncccn2)cc1=O in this test?
Response line: -1

Prompt line: Hello, I am checking results. What call was entered for O=C(/C=C/c1ccc(Cl)c([N+](=O)[O-])c1)c1cccnc1 ?
Response line: 1

Prompt line: What call does the record list for COc1ccccc1CNC(=O)c1cc(=O)c2ccccc2o1 ?
Response line: -1

Prompt line: Identify the outcome logged in this assay for the molecule shown: CC(C)NC(=S)NN=C1CCCCCCCCCCC1
Response line: -1

Prompt line: Returns: the outcome recorded for O=C(NN=C1CCC(=NNC(=O)c2cccnc2)CC1)c1cccnc1 in this assay.
Response line: -1

Prompt line: Fill in: this test's call for COc1ccc(Cl)cc1NC(=O)NC(C)C(C)(C)C (stereo not given) is ___
Response line: -1

Prompt line: Given CC(C)C(O)C1CCN(Cc2nc(Cc3ccccc3Cl)no2)CC1 (stereo not given) , state the outcome it received in this test.
Response line: -1

Prompt line: // return assay outcome for Cc1nc2nc[nH]n2c(=O)c1C/C=C/c1ccccc1
Response line: -1

Prompt line: Would you mind telling me which call this test gave COc1ccccc1C(=O)CSc1cccc[n+]1[O-] ?
Response line: -1

Prompt line: Which outcome was entered for the molecule CC(/C=N/NC(=O)c1ccncc1)=C\c1ccco1 in this test?
Response line: -1

Prompt line: What was the test verdict on O=C(CSc1nnnn1-c1ccc(O)cc1)N1N=C(c2ccc3ccccc3c2)CC1c1ccccc1 (stereo not given) ?
Response line: -1

Prompt line: Dear colleague, could you share the recorded outcome for COc1ccc(C(=O)C2CCCN(C(=O)c3cc4nc(C)cc(C)n4n3)C2)cc1F (stereo not given) when you have a moment?
Response line: -1

Prompt line: For this molecule, state the assay outcome: Cc1cccc(NC(=O)CSc2nc3[nH]ncc3c(=O)[nH]2)c1
Response line: -1

Prompt line: Record request — test call for COC(=O)C1=CN(Cc2ccc(OC)c(OC)c2)C=C(C(=O)OC)C1c1cccs1
Response line: -1

Prompt line: Which outcome was assigned to CSc1ncccc1C(=O)NC1CCCCCC1 in this test?
Response line: -1

Prompt line: For this molecule, state the assay outcome: CN(CC(=O)Nc1ccccc1[N+](=O)[O-])Cc1ccc(Br)cc1
Response line: -1

Prompt line: Per the records of this test, what outcome belongs to CCCCN(C(=O)COc1ccc(NC(C)=O)cc1)C1CCS(=O)(=O)C1 (stereo not given) ?
Response line: -1

Prompt line: Could you check what this test reported for NS(=O)(=O)c1ccc(CCNC(=O)c2ccc(Cl)cc2[N+](=O)[O-])cc1 ?
Response line: -1

Prompt line: Which outcome was assigned to Cc1cccc2cc(CN(Cc3ccc4c(c3)OCO4)Cc3nnnn3C3CCCC3)c(=O)[nH]c12 in this test?
Response line: -1

Prompt line: Could you please tell me the result logged for CCCCCCCNc1nc(Cl)nc(NCCO)n1 in this assay?
Response line: -1

Prompt line: Can you look up the reported call for COc1ccc(CN2CCCC(CNC(=O)c3ccc(F)cc3)C2)cc1OC (stereo not given) for me?
Response line: -1

Prompt line: Record lookup: outcome of this test for Nc1nc(SCC(=O)N2CCN(S(=O)(=O)c3ccc(Cl)cc3)CC2)n[nH]1 ?
Response line: -1

Prompt line: // param item: C=CCn1c(CCNC(=O)c2ccccc2F)nnc1SCC(=O)Nc1ccc(OC)cc1 ; yields the recorded call
Response line: -1

Prompt line: Assay outcome for COc1ccc(C)cc1NC(=O)Nc1ccccc1SC : what was it?
Response line: -1

Prompt line: Would you mind telling me which call this test gave CC(=O)Nc1nc(N(C)C)nc(N(C)C)n1 ?
Response line: -1

Prompt line: What outcome does the record of this test show for O=C(COC(=O)CCc1ccc(S(=O)(=O)N2CCOCC2)cc1)Nc1cccc(Cl)c1 ?
Response line: -1
